- Target or test system: HLA-B*07:02
- Test name: IEDB peptide-MHC binding, purified MHC/competitive/fluorescence; bounds were set here for any values at or beyond the usual limits of such assays
- Experimental context: source organism: Sudan ebolavirus
Measurement kind: IC50 (µM)
Response body: numeric value in µM, unit text excluded.

Prompt: Field request: IC50 | item: IPSSSPTTA
Response: 22.1

###

- Target or test system: HLA-B*51:01
- Test name: IEDB peptide-MHC binding, purified MHC/competitive/radioactivity; filed as Kd, often an IC50 or EC50 that approximates it; bounds were set here for any values at or beyond the usual limits of such assays
- Experimental context: source organism: Vaccinia virus Copenhagen
pKd: −log10 of the molar value.
Measurement kind: pKd

Prompt: So what's the measured pKd for this one? NLFDIPLLTV
Response: ≤ 4.16
